- assay_procedure: Intrinsic clearance in Hartley guinea pig hepatocytes at 2 uM after 60 to 120 mins
- Assay type: ADME, cell-based, Cavia porcellus, Hepatocyte
- assay_context: read-out: CLH
parameter: CLint scaled at 2 µM (mL/min/kg)
Unit mL/min/kg implied. Number only.

stdin: I have this compound here, CN1C(=O)[C@]2(N=C1N)c1cc(-c3cccnc3F)ccc1O[C@H]1CCOC[C@@H]12 , and I need its recorded CLint scaled at 2 µM.
stdout: 9.7

----------
- System: Brain
- assay_procedure: Fraction unbound in CD-1 mouse brain at 10 mg/kg, po measured at 4 hrs
- Type: ADME, organism-based
- Parameters: dose 10 mg/kg, route oral
- assay_context: in vivo
parameter: Drug uptake(free)

stdin: # value lookup — system Brain, readout Drug uptake(free), item C[C@]12CCOC[C@@H]1[C@]1(COC(N)=N1)c1cc(-c3cncc(Cl)c3)ccc1O2 (racemic)
stdout: 5.8 nM

stdin: Input C[C@]12CCOC[C@@H]1[C@]1(COC(N)=N1)c1cc(-c3cc(F)cc(Cl)c3)ccc1O2
stdout: 2.5 nM

stdin: Would you kindly repeat that for CN1C(=O)[C@]2(N=C1N)c1cc(-c3cc(F)cc(Cl)c3)ccc1O[C@H]1CCOC[C@@H]12 (racemic) ?
stdout: 0.49 nM

stdin: Now the same for C[C@H]1OCC[C@H]2Oc3ccc(-c4cccnc4F)cc3[C@]3(N=C(N)N(C)C3=O)[C@H]12 (racemic)
stdout: < 0.75 nM

stdin: Also, CN1C(=O)[C@]2(N=C1N)c1cc(-c3cncc(F)c3)ccc1O[C@H]1CCOC[C@@H]12 (racemic) please.
stdout: < 2.3 nM

stdin: Another molecule: CN1C(=O)[C@]2(N=C1N)c1cc(-c3cncc(Cl)c3)ccc1O[C@H]1CCOC[C@@H]12 (racemic)
stdout: < 0.8 nM

stdin: What do you have for CN1C(=O)[C@]2(N=C1N)c1cc(-c3cccc(C#N)c3)ccc1O[C@H]1CCOC[C@@H]12 (racemic) ?
stdout: 4.3 nM

stdin: Next up: CN1C(=O)[C@]2(N=C1N)c1cc(-c3cccnc3F)ccc1O[C@H]1CCOC[C@@H]12 (racemic)
stdout: 8.4 nM

stdin: Would you mind doing CN1C(=O)[C@]2(N=C1N)c1cc(-c3cccnc3F)ccc1O[C@H]1CCOC[C@@H]12 as well?
stdout: 15 nM

stdin: CN1C(=O)[C@]2(N=C1N)c1cc(-c3cccnc3F)ccc1O[C@H]1CCOC[C@@]12C (racemic) , same question.
stdout: 3.7 nM
